Sourced from patent US20150315188A1

- assaySystem: Human adrenergic α2A receptor (Homo sapiens, UniProt P08913)
- Sequence (P08913 whole entry): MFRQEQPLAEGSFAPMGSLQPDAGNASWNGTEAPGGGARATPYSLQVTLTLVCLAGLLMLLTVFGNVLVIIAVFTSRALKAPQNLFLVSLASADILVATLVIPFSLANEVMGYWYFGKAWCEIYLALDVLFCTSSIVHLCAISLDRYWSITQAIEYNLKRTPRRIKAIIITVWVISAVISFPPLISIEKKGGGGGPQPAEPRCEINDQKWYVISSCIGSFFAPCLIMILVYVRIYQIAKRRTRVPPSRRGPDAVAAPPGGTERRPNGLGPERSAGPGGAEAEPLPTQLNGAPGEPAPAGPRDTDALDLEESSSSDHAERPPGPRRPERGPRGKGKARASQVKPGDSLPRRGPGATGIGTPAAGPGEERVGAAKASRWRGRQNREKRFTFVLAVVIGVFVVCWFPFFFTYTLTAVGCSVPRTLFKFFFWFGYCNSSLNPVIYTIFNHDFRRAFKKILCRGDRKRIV
- methodSummary: Radioligand binding, adrenergic α2A (Protocol Group B)
- Parameters: purchased Milipore (Millipore)
- runParameters: 0.1 μM compound; Protocol Group B; read-out: Percentage inhibition of ligand binding, Adrenergic α2A (0.1 μM)
Catalogue of inhibition at 0.1 µM values
Enter your answer as a number in %; do not include the unit.

Challenge: # inhibition at 0.1 µM lookup, item CN1CCc2c(c3cccc(Cl)c3n2CC(O)c2cccnc2)C1 (stereo not drawn)
Response given: 12

Challenge: # inhibition at 0.1 µM lookup, item Cc1ccc2c(c1)c1c(n2CC(O)c2ccncc2)CNC2CCCC12 (single isomer, unassigned) [34c]
Response given: 4

Challenge: # inhibition at 0.1 µM lookup, item Cc1cc(F)cc2c3c(n(CC(C)(O)c4cccnc4)c12)CCN1CCCC31 (stereo not drawn) [75b]
Response given: -3

====

- assaySystem: Human adrenergic α2B receptor (Homo sapiens)
- Sequence (P18089 whole entry): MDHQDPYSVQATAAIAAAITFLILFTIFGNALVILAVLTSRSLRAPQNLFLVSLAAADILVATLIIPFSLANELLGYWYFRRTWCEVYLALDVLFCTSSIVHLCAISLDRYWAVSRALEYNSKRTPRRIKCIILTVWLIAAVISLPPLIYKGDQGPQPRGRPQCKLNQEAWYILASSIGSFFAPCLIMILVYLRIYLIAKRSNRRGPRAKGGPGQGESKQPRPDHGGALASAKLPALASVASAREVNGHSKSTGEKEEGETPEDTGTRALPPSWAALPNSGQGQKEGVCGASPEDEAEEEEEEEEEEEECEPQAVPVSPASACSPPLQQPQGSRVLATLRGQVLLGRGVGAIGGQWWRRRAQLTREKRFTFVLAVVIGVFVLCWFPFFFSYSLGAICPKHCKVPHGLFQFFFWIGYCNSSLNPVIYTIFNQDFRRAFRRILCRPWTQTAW
- methodSummary: Radioligand binding, adrenergic α2B (Protocol Group B)
- Parameters: purchased Milipore (Millipore)
- runParameters: Protocol Group B; estimated Ki; read-out: Ki α2B
measurementKind: pKi
# pKi is unitless: minus log10 of the molar concentration; print number only

Challenge: Form field: pKi recorded for CC(O)(Cn1c2c(c3cc(Cl)cc(F)c31)C1CCCN1CC2)c1ccncc1 (single isomer, unassigned) [52a] with Human adrenergic α2B receptor (Homo sapiens) (enter value)
Response given: 9.08

Challenge: Form field: pKi recorded for CC(O)(Cn1c2c(c3cc(Cl)cc(F)c31)CN1CCCC1C2)c1cccnc1 (single isomer, unassigned) [63c] with Human adrenergic α2B receptor (Homo sapiens) (enter value)
Response given: 7.91

Challenge: Form field: pKi recorded for Cc1ccc2c(c1)c1c(n2CC(C)(O)c2ccnc(F)c2)CCN2CCCC12 (single isomer, unassigned) [48a] with Human adrenergic α2B receptor (Homo sapiens) (enter value)
Response given: 8.90

====

Target chain: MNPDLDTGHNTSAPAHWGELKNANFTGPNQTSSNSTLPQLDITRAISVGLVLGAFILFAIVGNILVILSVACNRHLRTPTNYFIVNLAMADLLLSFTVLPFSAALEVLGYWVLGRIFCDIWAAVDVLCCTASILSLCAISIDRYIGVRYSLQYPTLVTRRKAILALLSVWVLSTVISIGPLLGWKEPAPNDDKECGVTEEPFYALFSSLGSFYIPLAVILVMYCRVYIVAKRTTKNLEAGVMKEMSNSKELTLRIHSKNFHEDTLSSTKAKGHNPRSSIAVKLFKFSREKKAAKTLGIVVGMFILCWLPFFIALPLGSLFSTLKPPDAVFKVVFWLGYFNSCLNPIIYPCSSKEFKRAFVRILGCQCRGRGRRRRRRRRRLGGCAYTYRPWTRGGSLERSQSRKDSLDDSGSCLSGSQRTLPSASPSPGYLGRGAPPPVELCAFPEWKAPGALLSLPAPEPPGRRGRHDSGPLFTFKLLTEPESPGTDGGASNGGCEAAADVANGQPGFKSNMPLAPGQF
measurementKind: pKi
# pKi is unitless: minus log10 of the molar concentration; print number only

compound	measurementKind	reportedValue
Cc1ccc2c(c1)c1c(n2CC(C)(O)c2ccnc(F)c2)CCN2CCCC12 (single isomer, unassigned) [48a]	pKi	8.09
Cc1ccc2c(c1)c1c(n2CC(O)c2ccncc2)CNC2CCCC12 (single isomer, unassigned) [34c]	pKi	6.42
Cc1cc(F)c2c(c1)c1c(n2CC(C)(O)c2ccncc2)CCN2CCCC12 (single isomer, unassigned) [81a]	pKi	7.84

Challenge: # pKi lookup, item OC(Cn1c2c(c3cc(F)ccc31)C1CCCN1CC2)c1ccncc1 (single isomer, unassigned) [18b]
Response given: 7.18

Challenge: # pKi lookup, item Cc1ccc2c(c1)c1c(n2CC(C)(O)c2ccncc2)CCN2CCCC12 (single isomer, unassigned) [13a]
Response given: 8.00

Challenge: # pKi lookup, item Cc1cc(F)c2c(c1)c1c(n2CC(C)(O)c2cccnc2)CCN2CCCC12 (stereo not shown) [Compound No. 79a]
Response given: 7.37

Challenge: # pKi lookup, item CCCOC(Cn1c2c(c3cc(C)ccc31)CN(C)CC2)c1ccncc1 (single isomer, unassigned) [42a]
Response given: 7.27
